The molecules listed here are annotated with their human TRPV1 H+ (max % remain).
- subject of test: human TRPV1 (Homo sapiens)
- Construct: expressed in transfected cells
- assay details: Acid Activation Assay (pH 5.0, FLIPR intracellular Ca2+, recombinant HEK293 cells)
- Assay type: cell-based
- condition context: percentage of maximal pH 5.0-induced response remaining; HEK293 hTRPV1; max concentration 37.5 μM
measurement type: human TRPV1 H+ (max % remain) (%)

molecule	subject of test	measurement type	numeric value
O=C(Nc1cccc2c1C[C@@H](O)C2)N[C@@H]1CC2(CCC2)Oc2ccc(F)cc21 [Example 80]	human TRPV1 (Homo sapiens)	human TRPV1 H+ (max % remain)	4
CC(C)(C)c1ccc(Nc2ncnc3cc(-c4ncccc4C(F)(F)F)ccc23)cc1 [B, reference compound]	human TRPV1 (Homo sapiens)	human TRPV1 H+ (max % remain)	1
CC1(C)C[C@@H](NC(=O)Nc2ccc(F)c3c2C[C@H](O)C3)c2ccc(F)cc2O1 [Example 138]	human TRPV1 (Homo sapiens)	human TRPV1 H+ (max % remain)	4
O=C(Nc1cccc2c1CC(O)C2)NC1CC(c2ccc(F)cc2)Oc2ccccc21 (stereo not shown) [Example 119]	human TRPV1 (Homo sapiens)	human TRPV1 H+ (max % remain)	72

* * *

- subject of test: human TRPV1 (Homo sapiens, UniProt Q8NER1)
- Construct: expressed in transfected cells
- Sequence (Q8NER1 whole entry): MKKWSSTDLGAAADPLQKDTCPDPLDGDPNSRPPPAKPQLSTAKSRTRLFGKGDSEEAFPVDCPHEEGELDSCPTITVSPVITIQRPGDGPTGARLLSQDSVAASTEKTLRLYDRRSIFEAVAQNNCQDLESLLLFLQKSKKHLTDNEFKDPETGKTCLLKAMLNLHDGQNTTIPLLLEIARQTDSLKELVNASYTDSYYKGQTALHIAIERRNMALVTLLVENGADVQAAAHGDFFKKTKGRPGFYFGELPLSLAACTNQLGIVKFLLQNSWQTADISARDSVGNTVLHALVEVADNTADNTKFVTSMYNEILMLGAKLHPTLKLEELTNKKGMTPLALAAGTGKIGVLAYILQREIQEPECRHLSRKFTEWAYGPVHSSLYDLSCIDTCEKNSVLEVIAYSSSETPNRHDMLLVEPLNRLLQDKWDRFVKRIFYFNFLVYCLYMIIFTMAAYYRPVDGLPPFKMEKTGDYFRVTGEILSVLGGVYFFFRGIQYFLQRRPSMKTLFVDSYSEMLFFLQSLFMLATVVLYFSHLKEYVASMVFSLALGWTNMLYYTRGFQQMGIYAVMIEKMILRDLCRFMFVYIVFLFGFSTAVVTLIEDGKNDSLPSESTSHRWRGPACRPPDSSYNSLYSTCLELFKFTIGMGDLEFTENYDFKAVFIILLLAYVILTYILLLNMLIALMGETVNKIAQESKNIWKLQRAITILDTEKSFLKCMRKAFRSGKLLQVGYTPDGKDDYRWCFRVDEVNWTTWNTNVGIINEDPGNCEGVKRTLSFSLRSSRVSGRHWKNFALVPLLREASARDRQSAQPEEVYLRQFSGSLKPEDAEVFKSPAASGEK
- assay details: Acid Activation Assay (pH 5.0, FLIPR intracellular Ca2+, recombinant HEK293 cells)
- Format: cell-based
- condition context: percentage of maximal pH 5.0-induced response remaining; HEK293 hTRPV1; max concentration 37.5 μM
measurement type: human TRPV1 H+ (max % remain)

compound	subject of test	measurement type	result
CC1(C)C[C@@H](NC(=O)Nc2cccc3c2C[C@H](O)C3)c2ccc(OC(F)(F)F)cc2O1	human TRPV1 (Homo sapiens, UniProt Q8NER1)	human TRPV1 H+ (max % remain)	39%
CC1(C)C[C@@H](NC(=O)Nc2ccc(F)c3c2C[C@@H](O)C3)c2ccccc2O1	human TRPV1 (Homo sapiens, UniProt Q8NER1)	human TRPV1 H+ (max % remain)	61%
CC1(C)C[C@@H](NC(=O)Nc2cccc3c2C[C@H](O)C3)c2ccc(C(F)(F)F)cc2O1	human TRPV1 (Homo sapiens, UniProt Q8NER1)	human TRPV1 H+ (max % remain)	55%
O=C(Nc1cccc2c1C[C@H](O)C2)N[C@@H]1CC(CF)(CF)Oc2cc(OC(F)(F)F)ccc21	human TRPV1 (Homo sapiens, UniProt Q8NER1)	human TRPV1 H+ (max % remain)	30%
O=C(Nc1ccc(F)c2c1C[C@H](O)C2)N[C@@H]1CCOc2cc(OC(F)(F)F)ccc21	human TRPV1 (Homo sapiens, UniProt Q8NER1)	human TRPV1 H+ (max % remain)	3%
O=C(Nc1cccc2c1C[C@H](O)C2)N[C@H]1COc2ccc(Cl)cc2C1	human TRPV1 (Homo sapiens, UniProt Q8NER1)	human TRPV1 H+ (max % remain)	91%
CC1(C)C[C@H](NC(=O)Nc2cccc3c2C[C@H](O)C3)c2cc(F)ccc2O1	human TRPV1 (Homo sapiens, UniProt Q8NER1)	human TRPV1 H+ (max % remain)	100%
O=C(Nc1cccc2c1CC(O)C2)NC1CC(c2ccccc2)Oc2ccccc21 (stereo not shown)	human TRPV1 (Homo sapiens, UniProt Q8NER1)	human TRPV1 H+ (max % remain)	67%
O=C(Nc1cccc2c1C[C@H](O)C2)N[C@@H]1CC2(CCC2)Oc2cc(C(F)(F)F)ccc21	human TRPV1 (Homo sapiens, UniProt Q8NER1)	human TRPV1 H+ (max % remain)	20%
O=C(Nc1cccc2c1C[C@H](O)C2)N[C@@H]1CC(CF)(CF)Oc2c(Cl)cccc21	human TRPV1 (Homo sapiens, UniProt Q8NER1)	human TRPV1 H+ (max % remain)	80%
C[C@@]1(C(F)F)C[C@@H](NC(=O)Nc2cccc3c2C[C@H](O)C3)c2ccc(Cl)cc2O1	human TRPV1 (Homo sapiens, UniProt Q8NER1)	human TRPV1 H+ (max % remain)	64%
CC1(C)C[C@@H](NC(=O)Nc2cccc3c2C[C@H](O)C3)c2cccc(C(F)(F)F)c2O1	human TRPV1 (Homo sapiens, UniProt Q8NER1)	human TRPV1 H+ (max % remain)	72%
COc1ccc2c(c1)OCCC2NC(=O)Nc1cccc2c1CC(O)C2 (stereo not shown)	human TRPV1 (Homo sapiens, UniProt Q8NER1)	human TRPV1 H+ (max % remain)	55%
O=C(Nc1ccc(F)c2c1C[C@@H](O)C2)N[C@@H]1CC(CF)(CF)Oc2ccccc21	human TRPV1 (Homo sapiens, UniProt Q8NER1)	human TRPV1 H+ (max % remain)	57%
CC1(C)C[C@@H](NC(=O)Nc2cccc3c2C[C@H](O)C3)c2ccc(F)c(F)c2O1	human TRPV1 (Homo sapiens, UniProt Q8NER1)	human TRPV1 H+ (max % remain)	82%
C[C@]1(CF)C[C@@H](NC(=O)Nc2ccc3c(c2)C(O)C3)c2ccc(Cl)cc2O1 (stereo partly shown)	human TRPV1 (Homo sapiens, UniProt Q8NER1)	human TRPV1 H+ (max % remain)	92%

* * *

- subject of test: human TRPV1 (Homo sapiens)
- Construct: expressed in transfected cells
- assay details: Capsaicin Activation Assay (FLIPR intracellular Ca2+, recombinant HEK293 cells)
- Type: cell-based
- condition context: recombinant HEK293 cells expressing hTRPV1; 50 nM capsaicin; read-out: human TRPV1 capsaicin IC50
pIC50: −log10 of the molar value.
# binarize pIC50: threshold 7 inclusive, high side Condition met, low side Condition not met

compound	cat
O=C(Nc1ccc(F)c2c1C[C@H](O)C2)N[C@@H]1CC(CF)(CF)Oc2ccc(F)cc21	Condition not met
O=C(Nc1cccc2c1C[C@H](O)C2)N[C@@H]1CC2(CCCC2)Oc2ccccc21	Condition not met
C[C@@]1(CF)C[C@@H](NC(=O)Nc2cccc3c2C[C@H](O)C3)c2ccc(Cl)cc2O1	Condition met
C[C@@]1(CF)C[C@@H](NC(=O)Nc2cccc3c2C[C@H](O)C3)c2ccc(C(F)(F)F)cc2O1	Condition met
CC1(C)C[C@@H](NC(=O)Nc2cccc3c2C[C@@H](O)C3)c2ccc(OC(F)(F)F)cc2O1	Condition met
O=C(Nc1cccc2c1CC(O)C2)NC1c2ccccc2OCC1c1ccc(Cl)cc1 (stereo not shown)	Condition not met
CC1(C)C[C@@H](NC(=O)Nc2cccc3c2C[C@H](O)C3)c2ccc(F)c(Cl)c2O1	Condition met
Cc1c(F)ccc2c1OC(C)(C)C[C@H]2NC(=O)Nc1cccc2c1C[C@H](O)C2	Condition met
C[C@]1(CF)C[C@@H](NC(=O)Nc2ccc3c(c2)C(O)C3)c2ccc(Cl)cc2O1 (stereo partly shown)	Condition not met
O=C(Nc1ccc(F)c2c1C[C@H](O)C2)N[C@@H]1CC(CF)(CF)Oc2c(F)cc(F)cc21	Condition not met
O=C(Nc1cccc2c1C[C@H](O)C2)N[C@H]1CC2(CCC2)Oc2ccc(F)cc21	Condition not met
CN1CC[C@@H](NC(=O)Nc2ccc(F)c3c2C[C@H](O)C3)c2ccc(C(F)(F)F)cc21	Condition not met
O=C(Nc1ccc(F)c2c1C[C@H](O)C2)N[C@@H]1CC2(CCC2)Oc2ccc(F)cc21	Condition not met
O=C(Nc1cccc2c1C[C@H](O)C2)N[C@@H]1CC(CF)(CF)Oc2c1ccc(Cl)c2F	Condition met
O=C(Nc1cccc2c1C[C@@H](O)C2)N[C@@H]1CC(CF)(CF)Oc2cc(C(F)(F)F)ccc21	Condition met

* * *

The molecules listed here are annotated with their human TRPV1 H+ (max % remain).
- subject of test: human TRPV1 (Homo sapiens)
- Construct: expressed in transfected cells
- assay details: Acid Activation Assay (pH 5.0, FLIPR intracellular Ca2+, recombinant HEK293 cells)
- Format: cell-based
- condition context: percentage of maximal pH 5.0-induced response remaining; HEK293 hTRPV1; max concentration 37.5 μM

molecule	scale unit	human TRPV1 H+ (max % remain)
O=C(Nc1cccc2c1C[C@H](O)C2)N[C@@H]1CCc2cc(C(F)(F)F)ccc21	%	30
CC1(C)C[C@@H](NC(=O)Nc2cccc3c2C[C@@H](O)C3)c2ccccc2O1	%	56
O=C(Nc1cccc2c1C[C@H](O)C2)NC1COc2cc(Cl)ccc2C1 (some centres unmarked)	%	75
O=C(Nc1ccc(F)c2c1C[C@@H](O)C2)N[C@@H]1CC(CF)(CF)Oc2c(F)cccc21	%	58
CC(=O)Nc1nc2c(Oc3cc(-c4ccc(C(F)(F)F)cc4)ncn3)cccc2s1 [A, reference compound]	%	10

* * *

The compounds listed here are annotated with their inhibition in vivo at 100 µmol/kg.
- Tested on: rats
- assay details: Sodium Iodoacetate-Induced Knee Joint Osteoarthritic Pain Model (hind limb grip force)
- Type: in vivo
- condition context: rat; 100 μmol/kg po single dose; 1 hour after administration; 20 days after sodium iodoacetate; read-out: % effect (% return to normalcy of hind limb grip force)
measurement type: inhibition in vivo at 100 µmol/kg (%)

compound	measurement type	scale unit	numeric value
CC1(C)C[C@@H](NC(=O)Nc2cccc3c2C[C@@H](O)C3)c2ccc(F)c(Cl)c2O1 [Example 36]	inhibition in vivo at 100 µmol/kg	%	46
O=C(Nc1cccc2c1C[C@H](O)C2)N[C@@H]1CC(CF)(CF)Oc2cc(Cl)ccc21 [Example 4]	inhibition in vivo at 100 µmol/kg	%	67
CC1(C)C[C@@H](NC(=O)Nc2cccc3c2C[C@H](O)C3)c2ccc(F)c(F)c2O1 [Example 9]	inhibition in vivo at 100 µmol/kg	%	67
O=C(Nc1cccc2c1C[C@H](O)C2)N[C@@H]1CC(CF)(CF)Oc2cc(C(F)(F)F)ccc21 [Example 7]	inhibition in vivo at 100 µmol/kg	%	68
CC1(C)C[C@@H](NC(=O)Nc2cccc3c2C[C@H](O)C3)c2ccc(F)cc2O1 [Example 5]	inhibition in vivo at 100 µmol/kg	%	57
